B1: Pistol ribozyme (parent)
chain: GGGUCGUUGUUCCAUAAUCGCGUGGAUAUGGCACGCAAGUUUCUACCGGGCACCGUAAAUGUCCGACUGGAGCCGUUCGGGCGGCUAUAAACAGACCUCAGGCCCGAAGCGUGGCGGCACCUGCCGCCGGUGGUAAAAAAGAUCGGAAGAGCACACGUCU

Variants of: B1
Test: aptazyme ON/OFF ratio, guanine; higher = stronger switching; co-transcriptional cleavage with and without guanine
Each entry below carries its reported aptazyme ON/OFF ratio.
Form: value (number only, do not type unit).

These recorded examples may help you get a feel for the data.
# Mutation Descriptor, aptazyme ON/OFF ratio
rows = [
    ("U8C G9C U10G U11C C12G C13A", 1.14),
    ("U7A U8C G9U U10C U11C C12U", 1.06),
    ("U7A U8C G9U U10G U11C C13U", 1.03),
    ("U8C G9A C12G C13G", 1.27),
    ("U8C U11C C13A", 1.21),
]

GET /values?readout=aptazyme ON/OFF ratio&item= U7G U10G U11A C12G C13A
1.11

# get_value(readout='aptazyme ON/OFF ratio', item= U7G U8A G9U U10G U11C C12A C13U )
1.11

# input variant: U7A U8G G9A U10C U11G ; wanted: its aptazyme ON/OFF ratio
1.74

Form field: reported aptazyme ON/OFF ratio of U7C U8G G9U U10C C12A C13A
1.41

Consider the variant U7A U8C G9A U11G C12U C13U and give its measured aptazyme ON/OFF ratio.
1.32

State the recorded aptazyme ON/OFF ratio for this entry: U7C U8G G9A U10G U11C C12A C13A
1.35

Could you tell me which aptazyme ON/OFF ratio is on file for U7C U8G G9C U11C C12G ?
1.67

Item under review: U7G U8G G9A U11A C12A C13A . Reported aptazyme ON/OFF ratio?
1.23

Please look up its aptazyme ON/OFF ratio: U7A U8C U11G C12A C13U
1.16

Reported aptazyme ON/OFF ratio, variant U7A U8C G9A C12G C13U : ____
1.2

For the variant U7C U8A G9U U10G C12A C13G , what aptazyme ON/OFF ratio is on record?
1.13

Query: aptazyme ON/OFF ratio; subject: U7A U8C U10C U11C C12G C13U
1.09

For U7G U8G G9C C12U C13G , what is its reported aptazyme ON/OFF ratio?
1.22

Fill in the blank: the reported aptazyme ON/OFF ratio of U7C U8A G9C U10A U11A C12G C13A is ____.
1.1

Item U7G U8G G9A U10G U11G has what recorded aptazyme ON/OFF ratio?
1.61

Param item = U7C U8A G9A U10G U11G C12U ; retrieve measured aptazyme ON/OFF ratio.
1.39

Report aptazyme ON/OFF ratio for U7A U8A G9U U10G U11C C12U please.
1.08

Please give the measured aptazyme ON/OFF ratio for this variant: U7C U8G G9A U10G U11G
1.42

Requested read-out: aptazyme ON/OFF ratio. Entry: U8A U10G U11G C12U
1.48

Can you share its aptazyme ON/OFF ratio? I mean this variant: U7A G9U U10A C12A
1.47

Recorded aptazyme ON/OFF ratio of U7C U10G U11G C12G C13A , please.
1.1

What aptazyme ON/OFF ratio value was documented for this variant, U7C U8G G9A C12G C13U ?
1.21
